Molecular target: human M4 receptor (Homo sapiens)
Construct: expressed in transfected cells
Sequence (P08173 1-479): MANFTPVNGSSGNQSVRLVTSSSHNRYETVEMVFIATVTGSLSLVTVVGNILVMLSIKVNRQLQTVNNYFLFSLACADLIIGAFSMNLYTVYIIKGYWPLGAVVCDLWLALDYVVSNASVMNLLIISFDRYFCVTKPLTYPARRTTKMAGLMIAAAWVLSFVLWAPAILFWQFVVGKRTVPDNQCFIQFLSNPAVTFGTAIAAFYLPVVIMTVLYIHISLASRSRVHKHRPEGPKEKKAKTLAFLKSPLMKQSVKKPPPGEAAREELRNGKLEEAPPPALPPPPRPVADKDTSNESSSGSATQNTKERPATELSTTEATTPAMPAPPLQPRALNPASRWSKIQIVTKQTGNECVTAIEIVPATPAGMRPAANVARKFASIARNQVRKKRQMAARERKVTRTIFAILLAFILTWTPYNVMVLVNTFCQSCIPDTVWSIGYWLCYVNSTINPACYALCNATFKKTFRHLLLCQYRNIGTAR
Assay: SPA GTP (GTPgS) binding curve shift assay, M4
Assay type: biochemical
Details: MK-4710 concentration 1110 nM
assayMetric: pEC50
Remember, pEC50 is on a log scale: it is -log10 of the molar concentration.

Form field pEC50 for item CCCCCOc1nsnc1C1=CCCCN1C [KTX-517] on human M4 receptor (Homo sapiens): 8.64
